Answer each item with its documented pKi.
biological target: rat SUR2A (Rattus norvegicus); experiment: In vitro binding affinity to rodent KATP channels: SUR2A ([3H]P1075 / [3H]glibenclamide displacement, COS cell membranes)
Just the number, please.

// lookup pKi for N/C(=N\S(=O)(=O)c1ccc(Cl)cc1)N1C[C@@H](c2ccccc2)C(c2ccc(Cl)cc2)=N1 (stereo in doubt)
5.4

// lookup pKi for O=C(NS(=O)(=O)c1ccc(Cl)cc1)N1CC(c2ccccc2)C(c2ccc(Cl)cc2)=N1 (stereo not shown)
4.8

// lookup pKi for `CS(=O)(=O)c1c(C(=O)NN2CCCCC2)nc(-c2ccc(Cl)cc2Cl)n1-c1ccc(Cl)cc1`
5.0

// lookup pKi for `CCc1c(C(=O)NN2CCCCC2)nc(-c2ccccc2Cl)n1-c1ccc(Cl)cn1`
4.8

* * *

target: hamster SUR1 (Cricetus cricetus); construct: expressed in transfected cells; host or cells: COS-1 cells, transient (pcDNA vector); test: In vitro binding affinity to rodent KATP channels: SUR1 ([3H]glibenclamide displacement, COS cell membranes); details: hamster SUR1 in COS cell membranes; read-out: Affinity to SUR 1 (converted)
Answer each item with its documented Ki.
Give just the numeric value; µM need not be written.

// lookup Ki for CCC1CN=C(N2CC(c3ccccc3)C(c3ccc(Cl)cc3)=N2)O1 (centres unmarked)
3.16

// lookup Ki for CCc1c(C(=O)NN2CCCCC2)nn(-c2ccc(Cl)cc2Cl)c1-c1ccc(Br)cc1 [SR-147778, reference compound]
3.16

// lookup Ki for Cc1c(C(=O)NC2CCC(O)CC2)nc(-c2ccc(Cl)cc2Cl)n1-c1ccc(Cl)cc1 (centres unmarked)
100

// lookup Ki for `Cn1c(C(=O)NC2CCCCC2)nc(-c2ccc(Cl)cc2Cl)c1-c1ccc(Cl)cc1`
100

// lookup Ki for `Cc1c(NC(=O)N2CCCCC2)nn(-c2ccc(Cl)cc2Cl)c1-c1ccc(Cl)cc1`
20

// lookup Ki for CN/C(=N\S(=O)(=O)N(C)C)N1CC(c2cccc(F)c2)C(c2ccc(Cl)cc2)=N1 (centres unmarked)
0.1

// lookup Ki for C[C@H](NS(C)(=O)=O)c1ccc(S(=O)(=O)c2ccc(Cl)cc2S(=O)(=O)c2ccccc2F)cc1 [reference compound]
1.26

// lookup Ki for CN/C(=N\S(=O)(=O)N1CCCCCC1)N1CC(c2ccccc2)C(c2ccc(Cl)cc2)=N1 (centres unmarked)
25.1

* * *

test system: rat perifused pancreatic islets; test: KATP opening effects through insulin secretion in rat perifused pancreatic islets; assay type: cell-based; conditions: 11 mM glucose, 30-60 minutes
Readout: % Inhibition 30-60 (insulin secretion) (%)
Give just the numeric value; % need not be written.

// lookup % Inhibition 30-60 (insulin secretion) for CN1CCCCC1Cn1cc(C(=O)c2cc([N+](=O)[O-])ccc2I)c2ccccc21 (stereo not shown) [AM-1241, reference compound]
74

// lookup % Inhibition 30-60 (insulin secretion) for CN/C(=N\S(=O)(=O)c1ccc(C(F)(F)F)cc1)N1CC(c2cccnc2)C(c2ccc(Cl)cc2)=N1 (stereo not shown)
31

// lookup % Inhibition 30-60 (insulin secretion) for CN/C(=N\S(=O)(=O)N1CCOCC1)N1CC(c2ccccc2)C(c2ccc(Cl)cc2)=N1 (stereo not shown) [drawing 118]
91

// lookup % Inhibition 30-60 (insulin secretion) for Cc1c(C(=O)c2cccc3ccccc23)c2cccc3c2n1[C@H](CN1CCOCC1)CO3 [drawing 112, reference compound]
40

* * *

molecular target: rat SUR2A (Rattus norvegicus, UniProt Q63563); test: In vitro binding affinity to rodent KATP channels: SUR2A ([3H]P1075 / [3H]glibenclamide displacement, COS cell membranes)
Sequence (Q63563 whole entry): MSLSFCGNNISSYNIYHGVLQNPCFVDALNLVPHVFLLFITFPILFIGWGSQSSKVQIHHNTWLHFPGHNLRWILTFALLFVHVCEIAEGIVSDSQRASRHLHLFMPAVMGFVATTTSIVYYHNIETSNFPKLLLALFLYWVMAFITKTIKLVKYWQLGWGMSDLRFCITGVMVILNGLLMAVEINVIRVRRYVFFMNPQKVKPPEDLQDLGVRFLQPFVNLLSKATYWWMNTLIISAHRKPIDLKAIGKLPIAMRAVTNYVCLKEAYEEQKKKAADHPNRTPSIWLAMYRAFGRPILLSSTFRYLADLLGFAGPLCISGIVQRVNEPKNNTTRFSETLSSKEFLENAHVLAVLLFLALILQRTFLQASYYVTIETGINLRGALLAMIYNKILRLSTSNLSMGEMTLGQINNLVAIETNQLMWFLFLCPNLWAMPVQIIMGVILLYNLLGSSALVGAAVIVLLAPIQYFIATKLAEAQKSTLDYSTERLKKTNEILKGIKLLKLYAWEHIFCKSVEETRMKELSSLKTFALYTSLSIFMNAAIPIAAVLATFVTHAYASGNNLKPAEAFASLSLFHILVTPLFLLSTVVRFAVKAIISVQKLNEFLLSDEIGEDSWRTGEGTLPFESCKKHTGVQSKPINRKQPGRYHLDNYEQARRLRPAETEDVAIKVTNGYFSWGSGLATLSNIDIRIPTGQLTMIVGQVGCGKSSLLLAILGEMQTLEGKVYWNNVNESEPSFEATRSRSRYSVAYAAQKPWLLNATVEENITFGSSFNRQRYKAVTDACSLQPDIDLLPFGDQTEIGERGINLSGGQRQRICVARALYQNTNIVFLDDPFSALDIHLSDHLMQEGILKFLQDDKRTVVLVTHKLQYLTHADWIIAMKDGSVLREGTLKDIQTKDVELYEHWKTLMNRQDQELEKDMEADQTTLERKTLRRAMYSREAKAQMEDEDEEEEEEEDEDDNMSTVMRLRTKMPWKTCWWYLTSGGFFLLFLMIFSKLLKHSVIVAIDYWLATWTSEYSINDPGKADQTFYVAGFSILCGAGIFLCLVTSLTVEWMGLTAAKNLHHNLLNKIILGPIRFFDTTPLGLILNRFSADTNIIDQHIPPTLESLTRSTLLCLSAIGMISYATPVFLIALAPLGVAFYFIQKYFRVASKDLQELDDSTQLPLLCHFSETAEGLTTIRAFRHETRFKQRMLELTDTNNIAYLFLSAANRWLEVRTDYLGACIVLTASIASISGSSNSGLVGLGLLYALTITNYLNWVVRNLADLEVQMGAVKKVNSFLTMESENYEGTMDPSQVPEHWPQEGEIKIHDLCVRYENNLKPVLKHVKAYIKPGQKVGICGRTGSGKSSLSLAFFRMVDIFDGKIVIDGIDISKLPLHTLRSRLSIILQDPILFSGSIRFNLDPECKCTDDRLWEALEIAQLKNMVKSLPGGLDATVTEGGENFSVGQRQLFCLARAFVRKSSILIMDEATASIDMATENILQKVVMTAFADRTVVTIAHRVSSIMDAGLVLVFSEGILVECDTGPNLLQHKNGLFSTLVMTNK
Readout: pKi
Just the number, please.

// lookup pKi for `N#Cc1cc(-c2ccc(Br)cc2)n(-c2ccc(Cl)cc2Cl)n1`
5.4

// lookup pKi for CN/C(=N\S(=O)(=O)c1ccc(C(F)(F)F)cc1)N1CC(c2cccnc2)C(c2ccc(Cl)cc2)=N1 (stereo not drawn)
4.9

// lookup pKi for CCC1CN=C(N2CC(c3ccccc3)C(c3ccc(Cl)cc3)=N2)O1 (stereo not drawn)
4.4

// lookup pKi for `CCSc1c(C(=O)NN2CCCCC2)nc(-c2ccc(Cl)cc2Cl)n1-c1ccc(Cl)cc1`
5.3

// lookup pKi for CN(C)CCNC(=NS(=O)(=O)N1CCCCC1)N1CC(c2ccccc2)C(c2ccc(Cl)cc2)=N1 (stereo not drawn)
4.0

// lookup pKi for O=C(NN1CCCCC1)C1=NN(c2ccc(Cl)cc2Cl)C(c2ccc(Cl)cc2)C1 (stereo not drawn)
5.6

// lookup pKi for O=S(=O)(N=C(NCCF)N1CC(c2ccccc2)C(c2ccc(Cl)cc2)=N1)c1ccc(Cl)cc1 (stereo not drawn) [drawing 45]
4.6

// lookup pKi for CCCCC(C)(O)c1nc(-c2ccc(Cl)cc2Cl)n(-c2ccc(Cl)cc2)c1C (stereo not drawn)
5.3

// lookup pKi for CN1CCCC1CN/C(=N\S(=O)(=O)c1ccc(Cl)cc1)N1CC(c2ccccc2)C(c2ccc(Cl)cc2)=N1 (stereo not drawn)
5.1

* * *

molecular target: hamster SUR1 (Cricetus cricetus, UniProt Q09427); construct: expressed in transfected cells; host or cells: COS-1 cells, transient (pcDNA vector); test: In vitro binding affinity to rodent KATP channels: SUR1 ([3H]glibenclamide displacement, COS cell membranes); details: hamster SUR1 in COS cell membranes; read-out: Affinity to SUR 1 (converted)
Sequence (Q09427 whole entry): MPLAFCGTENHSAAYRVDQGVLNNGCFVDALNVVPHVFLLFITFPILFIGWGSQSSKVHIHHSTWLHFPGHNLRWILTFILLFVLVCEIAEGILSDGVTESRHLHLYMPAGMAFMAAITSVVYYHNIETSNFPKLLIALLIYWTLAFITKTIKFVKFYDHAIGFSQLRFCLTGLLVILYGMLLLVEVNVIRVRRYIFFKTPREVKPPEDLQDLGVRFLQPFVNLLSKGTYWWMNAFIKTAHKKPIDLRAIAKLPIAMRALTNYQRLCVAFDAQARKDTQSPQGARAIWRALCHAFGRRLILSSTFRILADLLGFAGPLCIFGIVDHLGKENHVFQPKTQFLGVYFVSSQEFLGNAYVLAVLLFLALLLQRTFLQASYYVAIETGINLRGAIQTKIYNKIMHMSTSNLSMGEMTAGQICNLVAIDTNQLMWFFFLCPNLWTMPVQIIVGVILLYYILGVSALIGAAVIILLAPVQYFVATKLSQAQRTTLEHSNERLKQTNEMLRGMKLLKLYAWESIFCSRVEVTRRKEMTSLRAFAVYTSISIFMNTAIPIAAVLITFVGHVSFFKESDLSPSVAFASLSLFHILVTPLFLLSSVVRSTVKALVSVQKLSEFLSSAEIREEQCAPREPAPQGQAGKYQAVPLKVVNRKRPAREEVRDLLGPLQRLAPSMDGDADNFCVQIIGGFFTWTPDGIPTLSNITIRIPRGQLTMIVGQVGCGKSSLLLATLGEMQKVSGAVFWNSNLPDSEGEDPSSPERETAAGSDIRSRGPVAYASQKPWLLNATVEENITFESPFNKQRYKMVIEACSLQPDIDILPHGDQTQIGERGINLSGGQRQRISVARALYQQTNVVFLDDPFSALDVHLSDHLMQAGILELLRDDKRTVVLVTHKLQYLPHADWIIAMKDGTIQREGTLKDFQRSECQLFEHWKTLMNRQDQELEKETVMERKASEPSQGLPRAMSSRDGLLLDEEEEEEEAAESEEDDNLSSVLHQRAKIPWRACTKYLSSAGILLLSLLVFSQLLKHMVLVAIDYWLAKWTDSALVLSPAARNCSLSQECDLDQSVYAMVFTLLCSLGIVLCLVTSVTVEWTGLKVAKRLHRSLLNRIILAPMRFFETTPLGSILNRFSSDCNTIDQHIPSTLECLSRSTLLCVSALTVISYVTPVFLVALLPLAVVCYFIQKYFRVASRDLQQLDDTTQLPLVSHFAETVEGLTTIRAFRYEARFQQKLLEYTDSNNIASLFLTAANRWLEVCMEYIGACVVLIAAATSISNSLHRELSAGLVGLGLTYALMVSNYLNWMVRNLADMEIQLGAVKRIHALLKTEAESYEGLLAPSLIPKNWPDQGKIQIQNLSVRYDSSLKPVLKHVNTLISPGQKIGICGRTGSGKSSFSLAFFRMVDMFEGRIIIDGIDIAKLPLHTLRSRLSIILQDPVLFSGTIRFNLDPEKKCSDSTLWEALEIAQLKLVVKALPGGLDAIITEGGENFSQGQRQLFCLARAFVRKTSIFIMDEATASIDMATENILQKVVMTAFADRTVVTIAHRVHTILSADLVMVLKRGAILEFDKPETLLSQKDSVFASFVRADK
Classes by Ki: bottom end: < 2 µM; midrange: ≥ 2 µM and < 6 µM; top end: ≥ 6 µM

Kindly state the category for this molecule: N=C(N)C1=NN(c2ccc(Cl)cc2)C(c2ccccc2)C1 (stereo not drawn)
top end

Kindly state the category for this molecule: CCCCCCC(C)(C)c1ccc([C@@H]2C[C@H](O)CC[C@H]2CCCO)c(O)c1 (stereo in doubt) [CP55940, reference compound]
midrange

Kindly state the category for this molecule: N#CCCNC(=NS(=O)(=O)c1ccc(Cl)cc1)N1CC(c2ccccc2)C(c2ccc(Cl)cc2)=N1 (stereo not drawn)
bottom end

Kindly state the category for this molecule: O=S(=O)(N=C(NCCF)N1CC(c2ccccc2)C(c2ccc(Cl)cc2)=N1)c1ccc(Cl)cc1 (stereo not drawn) [drawing 45]
top end

Kindly state the category for this molecule: O=S(=O)(N=C(NCc1cccnc1)N1CC(c2ccccc2)C(c2ccc(Cl)cc2)=N1)c1ccc(Cl)cc1 (stereo not drawn)
bottom end

Kindly state the category for this molecule: CCCCCCC(C)(C)c1cc(O)c2c(c1)OC(C)(C)[C@@H]1CC=C(CO)CC21 (stereo partly drawn) [HU-210, reference compound]
bottom end

Kindly state the category for this molecule: CN1CCCCC1Cn1cc(C(=O)c2cc([N+](=O)[O-])ccc2I)c2ccccc21 (stereo not drawn) [AM-1241, reference compound]
midrange

Kindly state the category for this molecule: `CCSc1c(C(=O)NN2CCCCC2)nc(-c2ccc(Cl)cc2Cl)n1-c1ccc(Cl)cc1`
top end

Kindly state the category for this molecule: NC(=O)C1CCN(C(=NS(=O)(=O)c2ccc(Cl)cc2)N2CC(c3ccccc3)C(c3ccc(Cl)cc3)=N2)CC1 (stereo not drawn)
midrange

Kindly state the category for this molecule: `CN/C(=N\S(=O)(=O)c1ccc(Cl)cc1)N1C[C@H](c2ccccc2)C(c2ccc(Cl)cc2)=N1`
bottom end

Kindly state the category for this molecule: CNC(=NS(=O)(=O)N1CCCCC1)C1=NN(c2ccc(Cl)cc2)C(c2ccccc2)C1 (stereo not drawn)
bottom end

Kindly state the category for this molecule: Cc1c(C(=O)c2cccc3ccccc23)c2cccc3c2n1[C@H](CN1CCOCC1)CO3 [R(+)-WIN55212-2, reference compound]
top end

Kindly state the category for this molecule: CCCCC(C)(O)c1nc(-c2ccc(Cl)cc2Cl)n(-c2ccc(Cl)cc2)c1C (stereo not drawn)
bottom end

Kindly state the category for this molecule: O=C(NS(=O)(=O)c1ccc(Cl)cc1)N1CC(c2ccccc2)C(c2ccc(Cl)cc2)=N1 (stereo not drawn)
midrange

Kindly state the category for this molecule: N/C(=N\S(=O)(=O)c1ccc(Cl)cc1)N1C[C@@H](c2ccccc2)C(c2ccc(Cl)cc2)=N1 (stereo in doubt)
bottom end

Kindly state the category for this molecule: O=C(NN1CCCCC1)C1=NN(c2ccc(Cl)cc2)C(c2ccccc2)C1 (stereo not drawn)
top end

Kindly state the category for this molecule: NC(Cc1ccc(Cl)c(Cl)c1)C(=O)N1CC(c2ccccc2)C(c2ccc(Cl)cc2)=N1 (stereo not drawn)
midrange

Kindly state the category for this molecule: CCCCC/C=C\C/C=C\C/C=C\C/C=C\CCCC(=O)OC(CO)CO [2-AG, reference compound]
midrange

Kindly state the category for this molecule: CCCCCCC(C)(C)c1ccc([C@@H]2C[C@H](O)CC[C@@H]2CCCO)c(O)c1 (stereo in doubt) [CP55940-entantiomer, reference compound]
midrange

Kindly state the category for this molecule: `O=C(NN1CCCCC1)c1cn(-c2ccc(Cl)cc2)c(-c2ccc(Cl)cc2Cl)n1`
top end

Kindly state the category for this molecule: `CCc1c(C(=O)NN2CCCCC2)nc(-c2ccc(Cl)cc2Cl)n1-c1ccc(Br)cc1`
midrange

Kindly state the category for this molecule: `CSc1c(C(=O)NC2CCCCC2)nc(-c2ccc(Cl)cc2Cl)n1-c1ccc(Cl)cc1`
bottom end

Kindly state the category for this molecule: CCN(CC)S(=O)(=O)N=C(NC)N1CC(O)(c2ccccc2)C(c2ccc(Cl)cc2)=N1 (stereo not drawn)
top end

Kindly state the category for this molecule: CN1CCC(CNC(=NS(=O)(=O)c2ccc(Cl)cc2)N2CC(c3ccccc3)C(c3ccc(Cl)cc3)=N2)C1 (stereo not drawn)
bottom end

Kindly state the category for this molecule: `Cc1c(C(=O)NN2CCCCCC2)nc(-c2ccc(Cl)cc2Cl)n1-c1ccc(Cl)cc1`
top end

Kindly state the category for this molecule: O=C(NN1CCCCC1)C1=NN(c2ccc(Cl)cc2Cl)C(c2ccc(Cl)cc2)C1 (stereo not drawn)
midrange

Kindly state the category for this molecule: `CNC(=NS(=O)(=O)N1CCCCC1)N1C[C@H](c2ccccc2)C(c2ccc(Cl)cc2)=N1`
bottom end

Kindly state the category for this molecule: CCCCC/C=C\C/C=C\C/C=C\C/C=C\CCCCOC(CO)CO [Noladineether, reference compound]
midrange

Kindly state the category for this molecule: `O=C(NN1CCCCC1)c1nc(-c2ccc(Cl)cc2Cl)n(-c2ccc(Cl)cc2)c1CN1CCCC1`
top end

Kindly state the category for this molecule: NC(=NS(=O)(=O)c1ccc(Cl)cc1)N1CC(c2ccccc2)C(c2ccc(Cl)cc2)=N1 (stereo not drawn)
bottom end

Kindly state the category for this molecule: C[S+]([O-])c1c(C(=O)NN2CCCCC2)nc(-c2ccc(Cl)cc2Cl)n1-c1ccc(Cl)cc1 (stereo not drawn)
top end

Kindly state the category for this molecule: `O=C(NN1CCCCC1)c1nc(-c2ccc(Cl)cc2Cl)n(-c2ccc(Cl)cc2)c1CF`
top end

Kindly state the category for this molecule: `CS(=O)(=O)c1c(C(=O)NN2CCCCC2)nc(-c2ccc(Cl)cc2Cl)n1-c1ccc(Cl)cc1`
top end

# credit: patent US20070254863A1
